# study-system: neuronal nicotinic acetylcholine receptors (Rattus norvegicus, UniProt P09483+P12390)
# Construct: crude synaptic membrane preparations from whole rat brain; from tissue; host or cells: whole rat brain, crude synaptic membranes
# Sequence (P09483 31-630): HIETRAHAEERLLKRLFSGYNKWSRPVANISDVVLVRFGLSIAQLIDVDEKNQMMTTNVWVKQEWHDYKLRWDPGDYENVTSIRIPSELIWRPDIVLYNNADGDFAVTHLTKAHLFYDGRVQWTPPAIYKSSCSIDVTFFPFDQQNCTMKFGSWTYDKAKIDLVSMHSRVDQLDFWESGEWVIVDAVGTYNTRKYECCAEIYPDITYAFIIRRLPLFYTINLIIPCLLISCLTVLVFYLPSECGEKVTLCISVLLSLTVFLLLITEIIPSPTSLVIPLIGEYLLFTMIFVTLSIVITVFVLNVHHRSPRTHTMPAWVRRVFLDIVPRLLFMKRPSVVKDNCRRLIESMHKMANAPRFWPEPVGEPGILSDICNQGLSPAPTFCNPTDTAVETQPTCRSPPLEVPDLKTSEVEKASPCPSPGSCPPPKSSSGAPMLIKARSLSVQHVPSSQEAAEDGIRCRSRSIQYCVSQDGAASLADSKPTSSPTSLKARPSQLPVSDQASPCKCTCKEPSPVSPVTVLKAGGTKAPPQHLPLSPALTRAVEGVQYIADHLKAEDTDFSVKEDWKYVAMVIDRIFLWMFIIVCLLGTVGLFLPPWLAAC
# Sequence (P12390 25-500): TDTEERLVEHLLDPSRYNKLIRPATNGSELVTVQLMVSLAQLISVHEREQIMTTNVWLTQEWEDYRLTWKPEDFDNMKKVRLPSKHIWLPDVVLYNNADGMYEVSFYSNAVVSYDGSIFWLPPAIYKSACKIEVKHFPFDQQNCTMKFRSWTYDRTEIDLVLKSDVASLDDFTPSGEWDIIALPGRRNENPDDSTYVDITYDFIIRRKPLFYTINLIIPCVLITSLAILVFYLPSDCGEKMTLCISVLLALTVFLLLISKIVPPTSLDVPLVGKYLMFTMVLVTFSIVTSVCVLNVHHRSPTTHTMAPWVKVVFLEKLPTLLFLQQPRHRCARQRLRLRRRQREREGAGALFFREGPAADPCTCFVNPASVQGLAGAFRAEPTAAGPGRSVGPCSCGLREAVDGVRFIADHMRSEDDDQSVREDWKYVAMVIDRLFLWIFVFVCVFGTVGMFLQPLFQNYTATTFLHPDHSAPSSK
# experiment: Binding of [3H]-cytisine to neuronal nicotinic acetylcholine receptors, crude synaptic membranes from whole rat brain
Where a name gives a salt, the structure may show the parent alone.
reported-metric: Ki (pM)
Please give a number only; it is taken to be in pM.

| compound | reading-unit | Ki |
| --- | --- | --- |
| Clc1cc(N2C[C@H]3CCN[C@H]3C2)cnc1Br [Example 59, fumarate] | pM | 350 |
| c1cncc(N2C[C@H]3CNC[C@H]32)c1 [Example 52, fumarate] | pM | 1300 |
| N#Cc1cncc(N2C[C@H]3CN[C@H]3C2)c1 [Example 79, fumarate] | pM | 120 |
| CN1C[C@@H]2CN(c3cccnc3)C[C@@H]2C1.Cl [Example 2, hydrochloride] | pM | 26000 |
| Clc1ccc(N2C[C@H]3CCN[C@H]3C2)cn1 (relative stereo) [Example 13, hydrochloride] | pM | 1500 |
| Clc1ccc(N2C[C@H]3CNC[C@H]32)cn1 [Example 57, fumarate] | pM | 1200 |
| Clc1cc(N2C[C@H]3CNC[C@H]32)cnc1Cl [Example 85, fumarate] | pM | 270 |
| Brc1cncc(N2C[C@@H]3CNC[C@@H]32)c1 | pM | 1500 |
| c1cncc(N2C[C@@H]3CN[C@@H]3C2)c1 (relative stereo) [Example 38, bis(4-methylbenzenesulfonate)] | pM | 160 |
| Clc1cc(N2C[C@@H]3CCN[C@@H]3C2)cnc1Cl [Example 25, hydrochloride] | pM | 1400 |

Value lookup for Ki; key = C=Cc1cncc(N2C[C@@H]3CNC[C@@H]32)c1 [Example 69, fumarate] 3200

What do you have for Cl.Clc1ccc(N2C[C@H]3CNC[C@H]3C2)cn1 [Example 3, hydrochloride] ? 200

c1cncc(N2C[C@@H]3CNC[C@@H]32)c1 [Example 55, fumarate] , same question. 720

Here is the next compound: N#Cc1cc(N2C[C@H]3CCN[C@H]3C2)cnc1Br [Example 51, fumarate] 120

// next record CCc1cncc(N2C[C@H]3CCN[C@H]3C2)c1 560
